# Tested on: MS2 coat protein
# Test summary: apparent KD of MS2 coat protein, switch OFF state (with FMN for OFF switches, without FMN for ON switches); designed switch direction (-1 OFF switch, 1 ON switch): -1; higher = weaker reporter binding
# Settings: FMN input: 0 or 200 uM; Eterna round: R93 (includes R88 designs)
Reported property: apparent KD of MS2 coat protein

| Sequence data | Reported property | Observed result |
| --- | --- | --- |
| AACAGUACAGGAUAUACAUGAGGAUCACCCAUGUGAAAAUUAAGUGGAGAACCACAAGGUAGAAGGGUACUGGA [Mat - Exclusion 3 - Eli mod - D62] | apparent KD of MS2 coat protein | 127 nM |
| AAGGUUGGAGGAUAUACAUAGAUACAGAUACAUGUAGACGUACAUGAGGAUCACCCAUGUAGAAGGCCAAUAUA [Mat - Same state - Mayanna Mod - D146] | apparent KD of MS2 coat protein | 88.6 nM |
| AACAGGUUAGGAUAUGUGUAACAAAUAAAAAAAAUAUAAACACAGAAGGAACAUGAGGAUCACCCAUGUUAACA [May 28] | apparent KD of MS2 coat protein | 17 nM |
| AACAGUACAGGAUAUACAUGAGGAUCACCCAUGUGAGAAUUAAGCAGCGUAACACAAAGUAGAAGGGUAAUGGA [Ruby 19] | apparent KD of MS2 coat protein | 43.9 nM |
| AAGUAGCUAGGAUAUACAUAGAUACAGAUUCAUGUAGAACUACAUGAGGAUCACCCAUGUAGAAGGAGCUAAUA [AJ 35] | apparent KD of MS2 coat protein | 60.3 nM |
| CACGUACAUGAGGAUCACCCAUGUUAGGAUAUGCCGGGUAAGAGAAAACUAAAAAUCAGCAGAAGGGACGAAAC [Bilbo Confounded 16 - Jieux - Exclusion 1] | apparent KD of MS2 coat protein | 32.3 nM |

---

# Tested on: K4 kissing-loop RNA reporter
# Test summary: apparent KD of K4 kissing-loop reporter; higher = weaker reporter binding
# Settings: Eterna round: R107; input ligand: arginine 13.2 mM

| Sequence data | Target system | apparent KD of K4 kissing-loop reporter (nM) |
| --- | --- | --- |
| AUUAAUAACUGAGGAUAUCGUUUUACUGUAGUGAUGUUACAGAAAGUUCAAAUUAUAAUUUCUAUUCGAGAAGGCAGAAUAAUUA [JR_SSFMNB_Sub026] | K4 kissing-loop RNA reporter | 68.9 |
| UCGAAAUGCGUCUCCUAGUUACUCCGGGAAGGAGCGUGGAUAACCGCAGGUAGGUCGCCCGGAAGCCGGACCAGUGAUGUUGGUC [Exclusion Arginine A Gf 29] | K4 kissing-loop RNA reporter | 179 |
| GGCUUAUUCUAUGAUACCAGCGUCACAUCGGGACUGCGCACGCAGCAGGCGAGUGAUGUUCGCCCUUGGCAGCAUCUCGGCGACU [theeternabot_exclusion_KL_Theo_B_26] | K4 kissing-loop RNA reporter | 230 |
| UUUAUAAAGUCGGCCGCCACUGGAUUUAUGUUUGUUUCGUCUGGAUCAAAGUGAUGUUUUGAGUCCAGGACCGGGACAUUUGUUA [whbob_Ex_Tryp_B_w38] | K4 kissing-loop RNA reporter | 74.8 |
| GGGUUGAACUGAAGGAGCGAGAAAUAGAAAGUAAGAAGAUAAGCUAGUGAUGUUAGAAAUUCUCAGGUAGGUCGCAGUAAGAAUU [V3] | K4 kissing-loop RNA reporter | 325 |
| AUUAAUUUCAGAGGAUAUCGUUAUUUUUUAUAUUUUAUUCAUUUAUGCAGUGAUGUUGCUAUUAUUCGAGAAGGCUGAUUUAUAA [JR_ExcFMNB_Sub004] | K4 kissing-loop RNA reporter | 105 |
| AAGUAGCUCUCGGCCGCCACUCCUCAGUGAUGUUGAGAUAUUAAUUGCCAAUUGGCGUAUUUAAAGAGGACCGGGAGAGCUACAA [AK3 SS Tryptophan B] | K4 kissing-loop RNA reporter | 315 |
| CUGGGUUGACGAAAAGUCAACAAAUGAGAAGGAGCGCACGAAAGUGCAGGUAGGUCGCUCAGUCCAGUGAUGUUGGAUCAUCCAG [#SwitchBubble 10 #K4Late] | K4 kissing-loop RNA reporter | 602 |
| AGUCCGCUCCAAGGAUAUAGUCCGGCUGCGCGUCAGUGAUGUUGAAGAAGUAUCGCGUCUCUAUAGCUAGAAGGUGGCGCAAUUG [theeternabot_sameState_KL_FMN_B_20] | K4 kissing-loop RNA reporter | 471 |
| GGCUCCUACGGAGGAUAUAGUAGCCCAGAGUGAUGUUCUAGGGUGUUUUCCGAUUUAGUCAUUGUUCUAGAAGGCCGUAGGAGCC | K4 kissing-loop RNA reporter | 177 |
| AAAAUAAACCAGUGAUGUUGGUAUCCGGAUACCAGCGAUAAUCAUCGCCCUUGGCAGCCGCGGACGUACAAAAUAAGUACGUCCU [MatMod 14 - Jieux - Same State - Theophylline A] | K4 kissing-loop RNA reporter | 135 |
| AGAACUGUCUGAGAUACCAGCUAAGGAGUGAUGUUCCUAAGUCCACGAAAGUGGACUCAUAGCCCUUGGCAGCUCAGACAGUUCA [#24 K4 Theophylline B Same State] | K4 kissing-loop RNA reporter | 675 |
| CCCUCACGAGUGAUGUUCGUAGGGUACAGUCAGGAUAUCAUGCGGUUGAGAAGGGACAGAGAGGGCGGCGGCGGGUUGCUCAUCU [Isanausbe] | K4 kissing-loop RNA reporter | 217 |
| AAGUGAUGUUGUAGUGAUGUUGUGAUGUUGCAGGAUAUAUAGUGAUGUAGAAGGGUAAGUACUGAUGUUGUUUGUGAGUGAUGUU [zrrszrmullin] | K4 kissing-loop RNA reporter | 44.9 |
| AACCCAUGACUGGAUACCAGACUAUACAUGCUGAGUGAUGUUUAGCGGAGUCAUCUCUCGGUCCCUUGGCAGCCAACGUCACGCG [theeternabot_sameState_KL_Theo_B_33] | K4 kissing-loop RNA reporter | 334 |
| AAACAUUGGUCGGAUACCAGCUGAUCGGAAACGAUCUUGCUGGAGUGAUGUUCCAAGUAAAGCCCUUGGCAGCCGACCGAUGAAA [MAT - Same State Theophlline B - Mod of Eli - D20] | K4 kissing-loop RNA reporter | 50.4 |
| UCGAACGAUGGAAGGAGCGCUCGUCAGUCCUGCGAGUGAUGUUCGUGGGUAAAUAGUCGCGAGCAGGUAGGUCGCCAUCUUGGGC [Reriat] | K4 kissing-loop RNA reporter | 132 |
| GGCAGUGAUGUUGCCAGUGGCAGAUGCGAAGGAGCGCGGUGAGACGCAGGUAGGUCGCGCAUUGAAAUUGCUGUCACUAAAAUGC [#1] | K4 kissing-loop RNA reporter | 274 |
| GCAAUCCCGGCGGCCGCCACUUUCAUACCAGUGAUGUUGAGUAGGAAAUGGAAUAUGCGCUGAAUAAGGACCGGGCCUAAGGAGA [theeternabot_exclusion_KL_Trp_B_47] | K4 kissing-loop RNA reporter | 216 |
| AGGGAUGAUGGAUAAAUAAACAAAGGAGAUACCAGUCAAAUAAUAGGCCCUUGGCAGCUUCAGAUCAGUGAUGUUGAAGAUAUUG [#09 K4 Theophylline A Same State] | K4 kissing-loop RNA reporter | 67.1 |
| AAACGUUGGUGCGAUACCAGCUUGAUCGGUAAACGAUCUACUGGAGUGAUGUUCCUAAAUAGCCCUUGGCAGCGCACCGACGAAA [MAT - Same State Theophlline B - Mod of Eli - D8] | K4 kissing-loop RNA reporter | 155 |
| GCGUAGAUUAGCAGUGAUGUUGCUACGGAAGGAGCGCGUGAAAACGCAGGUAGGUCGCCGACAAAAUUAAUUUUAAUGUCUGCGC [KL-SSArg-A6] | K4 kissing-loop RNA reporter | 448 |
| CCUAUCUCAUACGAUACCAGUGAAUAACCAGUGAUGUUGGAAUAACCAAGGAAUAUUUUACACCCUUGGCAGCGUAUGGGAUAGG [Ex Theophylline B K4 25] | K4 kissing-loop RNA reporter | 239 |

---

# Test system: K4 kissing-loop RNA reporter;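 further: bound reporter read as fluorescence of individual clusters on recovered sequencing chips by microscopy, with normalized cluster intensities fitted with a binding model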
# Test summary: apparent KD of K4 kissing-loop reporter; higher = weaker reporter binding
# Settings: Eterna round: R107; input ligand: FMN 200 uM
Please map values of apparent KD of K4 kissing-loop reporter to classes as shown: label 0: < 200 nM; label 1: ≥ 200 nM and < 400 nM; label 2: ≥ 400 nM

| Sequence data | Target system | Discrete label |
| --- | --- | --- |
| UUUGGUUUCUCGGCCGCCACUCGUGGGAAAUGGGCCUCAGGGAUAUAGUGAUGUUAUGUAAAGAAGAGGACCGGGAGAAGGAAGG [ExTryptoB.Dl] | K4 kissing-loop RNA reporter | label 1 |
| CGAGUCAAUUCAGAUACCAGCCAAUUAAAGUCGAGUGAUGUUCGACAAUGAACAUCCAAAGGCCCUUGGCAGCUGAAUUGGGAAC [Same State Theophylline B GF 18] | K4 kissing-loop RNA reporter | label 0 |
| UUGUCCGGGUGAUGGUCAUCACGUGGCGGGCGAGGACCGGUACGGCCGCCACUCGACUUUGCAGUGAUGUUGCAAACCGGACAAU [Exclusion - Tryptophan A (Freestyle 23)] | K4 kissing-loop RNA reporter | label 1 |
| AAACCAAUCAGAGGAUAUUCUUUAUUCGACAUAACCUUCUAUAAGGUGCAGUGAUGUUGCAAUAUAGGAGAAGGCUGAUUGACAA [Exclusion FMN B Gf 13] | K4 kissing-loop RNA reporter | label 1 |
| CUCUAACUGAGAAGGAGCGCGAUAUAAACACUCGCACAGUGAUGUUGUGUGUCAAGGGUAUCGCAGGUAGGUCGCUCAGAUACCU [Arg B SS t15] | K4 kissing-loop RNA reporter | label 1 |
| AAUGUAUGGCACAUGAGUGAUGUUCAUGUCCGAGGACCGGUACGGCCGCCACUCGGUCCUGGGUUCUUAUUACUAUACAUUAAUG [KL-XTryp-A2 #analogue] | K4 kissing-loop RNA reporter | label 0 |
| GGCGAAUAAAAUCGCCUAGAGAGAAAGGAUACCAGCACCCGGCGGUGCCCUUGGCAGCCUAGCCCAGUGAUGUUGGGUCCUCUAA [Biaveinbe] | K4 kissing-loop RNA reporter | label 1 |
| UCUGGUAUAUCUGAUACCAGAGUAUAGUAUCAAUUGCAUAUGGAGUGAUGUUCCAUACAACUCCCUUGGCAGCAGAUCUAUCUCU [Same State Theophylline B GF 24] | K4 kissing-loop RNA reporter | label 1 |
| UUACUACCCAGUGAUGUUGGGUAGCGGCGGCGAGGACCGGUACGGCCGCCACUCGGCGCACGGGAGUGAUGUUCCUACCGUUAGG [Same state Tryptophan A GF 8] | K4 kissing-loop RNA reporter | label 2 |
| AAAAUAAUCCAGUGAUGUUGGUCUCCAGAUACCAGCGACGAAAGUCGCCCUUGGCAGCUGUGGACGUACAAAAUAAGUACGUCCU | K4 kissing-loop RNA reporter | label 1 |
| AAAGCAUUGAGAAGGAGCGUGACGUGGAGUGAUGUUCCAUUGUAGUAAUAAUUACUACUAUCACAGGUAGGUCGCUCAUUGCUAA [JR_Nu_SSArginiB_Sub024] | K4 kissing-loop RNA reporter | label 0 |
| GCUAGUUUGGAAGGAUAUUCGUGCGAUCAAGUCAAACUUUACUGAGGGCGUUUUGGAGUGAUGUUCGAAGAAGGUCCCUUACUUA [theeternabot_exclusion_KL_FMN_B_28] | K4 kissing-loop RNA reporter | label 2 |
| UCCUGCAAUCGCCCACGAAAGUGGAUCGAUACCAGAGUCGAAAGACUCCCUUGGCAGCGAGUGAUGUUCGAAGCAGGUAAAUAAA | K4 kissing-loop RNA reporter | label 2 |
| AGUGAUGUUGUGUUAUGUUAGGGAAGUGAUCGAGGACCGGUACGGCCGCCACUCGAGUGAUGAGUGAGUGAUGUUUGUUUAGGGA [yytmullin] | K4 kissing-loop RNA reporter | label 2 |
| UGACUGGACUGAAGGAGCGCGAAACUCCUAGUGAUGUUAGGAUAACGAGACAAAGUCUCGACGCAGGUAGGUCGCAGUCUAGUCU | K4 kissing-loop RNA reporter | label 0 |
| GGUAGCAUGAUGGAUACCAGUCCAAAUGGAGUGAUGUUCCAACAACAGGUUAGGCUGCUGGACCCUUGGCAGCCGUCAUGCUACC | K4 kissing-loop RNA reporter | label 0 |
| UCACGAGUGAUGUUCGUCGCAAUCACCGAAGGAGCGGGCGAAAGCCCAGGUAGGUCGCGGUAGAAUAAUGAUUUUAUUCGAUUGC [Same State Arginine A GF 26] | K4 kissing-loop RNA reporter | label 2 |
| CCUAUCUCAUACGAUACCAGUCGUCGAGUGAUGUUCGAUUAAAUAUAUUUGCCAAAUAACGACCCUUGGCAGCGUAUGGGAUAGG [Ex Theophylline B K4 17] | K4 kissing-loop RNA reporter | label 1 |
| UUUUUGGAGAAUUAUAGUGAUGUUAUGAAGGAGGAUAUCUGGAGAUGGAGAAGGCCUAGUGGCUCAGGGAUGGAGGGUGGGUGGG [ExFMNA.Y] | K4 kissing-loop RNA reporter | label 2 |
| GGAUAGGAUAGAGGAUAUGGAUUAGGCAAGAAUAACUUGUCUUGUAAAUCCAUGAGGAGUGAUGUUCCAGAAGGCUGUCCUAUCG [MatMod 6 - Jieux - Exclusion - FMN B] | K4 kissing-loop RNA reporter | label 1 |
| UUAGUCAGAUUAUUAUUAGCCUGCGAGACUAAGGAUAUCCGAAUUCGGAGAAGGUAGUGAUGUUACUUUGGCAGGCACUGACAUU [AK8 Exc FMN A] | K4 kissing-loop RNA reporter | label 2 |
| UUUUUGGAGAAUUAUAGUGAUGUUAUGAAGAAGGAUAUCUAAAGAUGGAGAAGGUUUAAUAGUUAAGGGAUGGAGGGUGGGUGGG [ExFMNA.P] | K4 kissing-loop RNA reporter | label 1 |

Source: the supplement of paper PMC9170038
